- measured_target: TFR-PR (Human immunodeficiency virus type 1)
- procedure_summary: Inhibition of N-terminal autoprocessing of wild-type precursor in E. coli
measured_endpoint: IC50

Value of measured IC50 for the entry CC(C)CN(C[C@@H](O)[C@H](Cc1ccccc1)NC(=O)O[C@H]1CO[C@H]2OCC(F)(F)[C@H]21)S(=O)(=O)c1ccc(N)cc1 [GRL-5010A] : 1000 to 2000 nM

Recorded result, COc1ccc(S(=O)(=O)N(CC(C)C)C[C@@H](O)[C@H](Cc2ccccc2)NC(=O)O[C@H]2CO[C@H]3OC[C@H](OC)[C@H]32)cc1 [GRL-4410A] , IC50: 1000 to 2000 nM
